tested on: Scribble PDZ3; assay: Phosphomimetic ProP-PD selection with NGS; type: binding, human; details: mean over selections 1-3; bait Scribble PDZ3
TEST READOUT: Mean fraction #NGS counts mimetic peptide / total count selection
Please give only the number in your answer, with no unit.

Challenge: Need Mean fraction #NGS counts mimetic peptide / total count selection of ISYRREEAI , thanks.
Response given: 0

Challenge: Need Mean fraction #NGS counts mimetic peptide / total count selection of RPHTNETEL , thanks.
Response given: 0.00587

Challenge: Need Mean fraction #NGS counts mimetic peptide / total count selection of RSRSIETDV , thanks.
Response given: 0.001306

Challenge: Need Mean fraction #NGS counts mimetic peptide / total count selection of KKRMVEEPL , thanks.
Response given: 0

Challenge: Need Mean fraction #NGS counts mimetic peptide / total count selection of RSRSISEDV , thanks.
Response given: 0

Challenge: Need Mean fraction #NGS counts mimetic peptide / total count selection of ERLRVEEDV , thanks.
Response given: 0

Challenge: Need Mean fraction #NGS counts mimetic peptide / total count selection of SRKRTESFL , thanks.
Response given: 0.0004518

Challenge: Need Mean fraction #NGS counts mimetic peptide / total count selection of PIHELETSL , thanks.
Response given: 0

Challenge: Need Mean fraction #NGS counts mimetic peptide / total count selection of DKEEFLTWL , thanks.
Response given: 0.0001294

Challenge: Need Mean fraction #NGS counts mimetic peptide / total count selection of ARVSKEEPL , thanks.
Response given: 0

Challenge: Need Mean fraction #NGS counts mimetic peptide / total count selection of PIHSLEESL , thanks.
Response given: 7.932e-6

Challenge: Need Mean fraction #NGS counts mimetic peptide / total count selection of EIDLWETAL , thanks.
Response given: 0.0004512

Challenge: Need Mean fraction #NGS counts mimetic peptide / total count selection of TMFLRETEL , thanks.
Response given: 0.4954

Challenge: Need Mean fraction #NGS counts mimetic peptide / total count selection of KREFIESNV , thanks.
Response given: 0.005112

Challenge: Need Mean fraction #NGS counts mimetic peptide / total count selection of LSIEKEEKL , thanks.
Response given: 3.894e-6

Challenge: Need Mean fraction #NGS counts mimetic peptide / total count selection of SQERMETNM , thanks.
Response given: 0.0002907

Challenge: Need Mean fraction #NGS counts mimetic peptide / total count selection of HEKVFESAL , thanks.
Response given: 0.07851

====

target: DLG1 PDZ2 (Homo sapiens); construct: human DLG1 PDZ2 aa 311–407 in a modified pRSET vector 40; made in house; host or cells: E. coli BL21 Gold (DE3); assay: Phosphomimetic ProP-PD selection with NGS; assay type: binding; conditions: mean of selections 1-3; bait DLG1 PDZ2
Sequence (Q12959 311-407): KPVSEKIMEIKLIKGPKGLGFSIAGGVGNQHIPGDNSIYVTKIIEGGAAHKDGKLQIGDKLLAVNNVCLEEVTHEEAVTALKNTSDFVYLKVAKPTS
Threshold check on Mean fraction #NGS counts wt peptide / total counts selection: strictly below 0.0001 is True; on or above 0.0001 is False.

         seq              study_system  group_label
0  MRLQSETSV  DLG1 PDZ2 (Homo sapiens)         True

Challenge: Quick check: does YPGSPDSWV have Mean fraction #NGS counts wt peptide / total counts selection under 0.0001?
Response given: False

Challenge: Quick check: does GGKRKETLV have Mean fraction #NGS counts wt peptide / total counts selection under 0.0001?
Response given: False

Challenge: Quick check: does ERLRVETDV have Mean fraction #NGS counts wt peptide / total counts selection under 0.0001?
Response given: False

====

Reported Mean fraction #NGS counts wt peptide / total counts selection values for a set of sequences
test system: Scribble PDZ3; experiment: Phosphomimetic ProP-PD selection with NGS; assay type: binding, human; conditions: mean over selections 1-3; bait Scribble PDZ3
Please give only the number in your answer, with no unit.

Sample records with Mean fraction #NGS counts wt peptide / total counts selection:
>>> print(df.to_string())
         seq  value_reported
0  HSIKQSTAV        5.205e-5
1  SPTVHVTEL        5.538e-5

Challenge: Need Mean fraction #NGS counts wt peptide / total counts selection of KLSSIESDV , thanks.
Response given: 0.0003618

Challenge: Need Mean fraction #NGS counts wt peptide / total counts selection of RSRSISTDV , thanks.
Response given: 0.0004544

Challenge: Need Mean fraction #NGS counts wt peptide / total counts selection of SRDRKETSI , thanks.
Response given: 0.00255

Challenge: Need Mean fraction #NGS counts wt peptide / total counts selection of PLHSLETSL , thanks.
Response given: 0.0002261

Challenge: Need Mean fraction #NGS counts wt peptide / total counts selection of QKFRASTAL , thanks.
Response given: 4.038e-6

Challenge: Need Mean fraction #NGS counts wt peptide / total counts selection of KKRMVESPL , thanks.
Response given: 0.000138

====

biological target: Scribble PDZ1 (Homo sapiens); construct: human Scribble PDZ1 aa 719–829 in; made in house; host or cells: E. coli BL21 Gold (DE3); assay: Phosphomimetic ProP-PD selection with NGS; type: binding; conditions: bait Scribble PDZ1; mean of selections 1-3
Label scheme for Mean fraction #NGS counts wt peptide / total counts selection: lower than 0.0001 is Not fulfilled, 0.0001 and above is Fulfilled.

>>> df
         seq  group_label
0  LPKIKETTV    Fulfilled

Challenge: Say whether RSRSISTDV shows Mean fraction #NGS counts wt peptide / total counts selection of 0.0001 or more.
Response given: Fulfilled

Challenge: Say whether VRKLPSTTL shows Mean fraction #NGS counts wt peptide / total counts selection of 0.0001 or more.
Response given: Not fulfilled

Challenge: Say whether QKFRASTAL shows Mean fraction #NGS counts wt peptide / total counts selection of 0.0001 or more.
Response given: Not fulfilled

Challenge: Say whether ESREVTTYL shows Mean fraction #NGS counts wt peptide / total counts selection of 0.0001 or more.
Response given: Not fulfilled

Challenge: Say whether ISWLAFSVL shows Mean fraction #NGS counts wt peptide / total counts selection of 0.0001 or more.
Response given: Not fulfilled

Challenge: Say whether PLHSLETSL shows Mean fraction #NGS counts wt peptide / total counts selection of 0.0001 or more.
Response given: Fulfilled

Challenge: Say whether SPTVHVTEL shows Mean fraction #NGS counts wt peptide / total counts selection of 0.0001 or more.
Response given: Fulfilled

Challenge: Say whether VVHTPETSV shows Mean fraction #NGS counts wt peptide / total counts selection of 0.0001 or more.
Response given: Not fulfilled

Challenge: Say whether KRSFIESNV shows Mean fraction #NGS counts wt peptide / total counts selection of 0.0001 or more.
Response given: Fulfilled

Challenge: Say whether DKESFLTWL shows Mean fraction #NGS counts wt peptide / total counts selection of 0.0001 or more.
Response given: Fulfilled

Challenge: Say whether HSIKQSTAV shows Mean fraction #NGS counts wt peptide / total counts selection of 0.0001 or more.
Response given: Not fulfilled

Challenge: Say whether GSLALLTKL shows Mean fraction #NGS counts wt peptide / total counts selection of 0.0001 or more.
Response given: Not fulfilled

Challenge: Say whether MKRLTSTRL shows Mean fraction #NGS counts wt peptide / total counts selection of 0.0001 or more.
Response given: Not fulfilled

Challenge: Say whether PTHVLQTQI shows Mean fraction #NGS counts wt peptide / total counts selection of 0.0001 or more.
Response given: Not fulfilled

Challenge: Say whether VRSKLPSNL shows Mean fraction #NGS counts wt peptide / total counts selection of 0.0001 or more.
Response given: Not fulfilled

Challenge: Say whether SARLWETSI shows Mean fraction #NGS counts wt peptide / total counts selection of 0.0001 or more.
Response given: Fulfilled

Challenge: Say whether ARVSKETPL shows Mean fraction #NGS counts wt peptide / total counts selection of 0.0001 or more.
Response given: Fulfilled

Challenge: Say whether SGSYLVTSV shows Mean fraction #NGS counts wt peptide / total counts selection of 0.0001 or more.
Response given: Not fulfilled

Challenge: Say whether RPHTNETSL shows Mean fraction #NGS counts wt peptide / total counts selection of 0.0001 or more.
Response given: Fulfilled

====

target: Scribble PDZ1 (Homo sapiens, UniProt Q14160); construct: human Scribble PDZ1 aa 719–829 in; made in house; host or cells: E. coli BL21 Gold (DE3); experiment: Phosphomimetic ProP-PD selection with NGS; format: binding; conditions: bait Scribble PDZ1; mean of selections 1-3
Sequence (Q14160 719-829): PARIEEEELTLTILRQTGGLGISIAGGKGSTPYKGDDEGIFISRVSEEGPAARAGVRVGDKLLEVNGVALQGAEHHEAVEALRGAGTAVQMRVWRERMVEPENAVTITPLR
TEST READOUT: Mean fraction #NGS counts mimetic peptide / total count selection
Please give only the number in your answer, with no unit.

Sample records with Mean fraction #NGS counts mimetic peptide / total count selection:
In [3]: df
Out[3]:
         seq  value_reported
0  RPHTNETEL        0.008773
1  EEREVTTYL       0.0003719
2  MKRLTETRL         0.01768
3  HEKVFESAL       0.0004614
4  VVHEPETEV        4.939e-5

Challenge: Need Mean fraction #NGS counts mimetic peptide / total count selection of PIHELETSL , thanks.
Response given: 0

Challenge: Need Mean fraction #NGS counts mimetic peptide / total count selection of PLHSLETEL , thanks.
Response given: 0.01704

Challenge: Need Mean fraction #NGS counts mimetic peptide / total count selection of VWLRKEERV , thanks.
Response given: 0

Challenge: Need Mean fraction #NGS counts mimetic peptide / total count selection of PIHSLEESL , thanks.
Response given: 0

Challenge: Need Mean fraction #NGS counts mimetic peptide / total count selection of TMFLRETEL , thanks.
Response given: 0.8115
